- EXPERIMENT: Pharmacokinetics of aminoglycosides in the rat
- TEST PARAMETERS: in vivo, sc, 10 mg/kg, Kidney levels, 10 mg/kg subcutaneous, 24 hours post-dose, mean ± SD of three rats
EXPERIMENTAL READOUT: concentration at 24 h
Answer format: number, then unit.

Input line: Return reported concentration at 24 h. Input compound: CN[C@@H]1[C@@H](O)[C@@H](O[C@@H]2[C@@H](O)[C@H](O[C@H]3O[C@H]([C@@H](C)O)[C@@H](O)[C@H](O)[C@H]3N)[C@@H](N)C[C@H]2N)OC[C@]1(C)O [G418, reference compound]
Output line: 12000 ng/g

----------
- EXPERIMENT: Pharmacokinetics of aminoglycosides in the rat
- TEST PARAMETERS: plasma, sc, 10 mg/kg
EXPERIMENTAL READOUT: concentration at 24 h

Input line: Give recorded concentration at 24 h. CN[C@@H]1[C@@H](O)[C@@H](O[C@@H]2[C@@H](O)[C@H](O[C@H]3O[C@H](CO)[C@@H](O)[C@H](O)[C@H]3N)[C@@H](N)C[C@H]2N)OC[C@]1(C)O (stereo in doubt) [Gentamicin X2, gentamicin X2]
Output line: ≤ 1 ng/g

----------
- EXPERIMENT: Pharmacokinetics of aminoglycosides in the rat
- TEST PARAMETERS: kidney, sc, 10 mg/kg
EXPERIMENTAL READOUT: concentration at 24 h (ng/g)
Numbers only, in ng/g.

Input line: Please list concentration at 24 h recorded for the molecule CN[C@@H]1[C@@H](O)[C@@H](O[C@@H]2[C@@H](O)[C@H](O[C@H]3O[C@H](CO)[C@@H](O)[C@H](O)[C@H]3N)[C@@H](N)C[C@H]2N)OC[C@]1(C)O (stereo in doubt)
Output line: 7000

----------
- EXPERIMENT: Pharmacokinetics of aminoglycosides in the rat
- TEST PARAMETERS: plasma, sc, 10 mg/kg
EXPERIMENTAL READOUT: AUC (ng·h/mL)
Numbers only, in ng·h/mL.

Input line: Give the reported AUC for this compound. CN[C@@H]1[C@@H](O)[C@@H](O[C@@H]2[C@@H](O)[C@H](O[C@H]3O[C@H](CO)[C@@H](O)[C@H](O)[C@H]3N)[C@@H](N)C[C@H]2N)OC[C@]1(C)O (stereo in doubt)
Output line: 13000
